Target: Vhr1 (UniProt P40522)
Sequence: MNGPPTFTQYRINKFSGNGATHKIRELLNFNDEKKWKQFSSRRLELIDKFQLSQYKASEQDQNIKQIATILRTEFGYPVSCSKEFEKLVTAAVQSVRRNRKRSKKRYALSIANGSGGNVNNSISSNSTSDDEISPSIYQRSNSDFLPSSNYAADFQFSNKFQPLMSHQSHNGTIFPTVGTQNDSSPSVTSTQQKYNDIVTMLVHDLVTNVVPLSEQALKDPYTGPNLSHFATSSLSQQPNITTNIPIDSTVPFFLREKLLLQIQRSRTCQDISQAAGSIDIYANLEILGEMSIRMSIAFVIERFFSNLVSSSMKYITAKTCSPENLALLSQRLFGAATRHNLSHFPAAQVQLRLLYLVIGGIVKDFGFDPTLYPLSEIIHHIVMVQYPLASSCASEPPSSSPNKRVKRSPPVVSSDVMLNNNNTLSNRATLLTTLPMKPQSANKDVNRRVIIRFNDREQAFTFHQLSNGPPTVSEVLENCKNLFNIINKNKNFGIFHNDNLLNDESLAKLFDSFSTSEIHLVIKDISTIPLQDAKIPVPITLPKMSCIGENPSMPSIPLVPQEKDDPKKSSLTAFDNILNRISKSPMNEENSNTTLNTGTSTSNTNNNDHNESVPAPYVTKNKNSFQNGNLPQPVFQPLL
Assay: PBM E-score (8-mer binding enrichment) (E-score (-0.5 to 0.5)); higher = stronger / more preferred TF binding
Conditions: protein concentration: 200 nM; construct: GST-full length
In all, about 33,000 sequences were measured (“E-score (-0.5 to 0.5)”: median about -0.012, highest 2% from about 0.27 on). The sample holds the highest values, similar sequences and a random draw of the others, so the mix is not that of the screen.
Could you please report measured PBM E-score for the items listed next?

[ask] Fill in PBM E-score for record CGTATACG
[reply] 0.107

[ask] Fill in PBM E-score for record GCGAGCAA
[reply] -0.12

[ask] Fill in PBM E-score for record CCCCCTCG
[reply] -0.242

[ask] Fill in PBM E-score for record AACTTTTG
[reply] -0.205

[ask] Fill in PBM E-score for record CACAGTCA
[reply] 0.244

[ask] Fill in PBM E-score for record GTTGATAA
[reply] 0.109

[ask] Fill in PBM E-score for record CGGCCTCA
[reply] 0.024

[ask] Fill in PBM E-score for record TACTCCTA
[reply] 0.123

[ask] Fill in PBM E-score for record ATTTTAGC
[reply] -0.141

[ask] Fill in PBM E-score for record ATCAGTCA
[reply] 0.306

[ask] Fill in PBM E-score for record CACACACC
[reply] 0.235

[ask] Fill in PBM E-score for record CGGACTAC
[reply] 0.0519

[ask] Fill in PBM E-score for record CACCCACG
[reply] 0.249

[ask] Fill in PBM E-score for record GGGACTAA
[reply] -0.209

[ask] Fill in PBM E-score for record CTTAGTCA
[reply] 0.376

[ask] Fill in PBM E-score for record ATGGTCCG
[reply] 0.175

[ask] Fill in PBM E-score for record ACGGAGTC
[reply] 0.408

[ask] Fill in PBM E-score for record AATCAGAC
[reply] 0.201

[ask] Fill in PBM E-score for record ACTCCCTC
[reply] 0.0377

[ask] Fill in PBM E-score for record CAAAAGGA
[reply] -0.2

[ask] Fill in PBM E-score for record AACGAGCA
[reply] -0.0591

[ask] Fill in PBM E-score for record GACTATCA
[reply] 0.0818

[ask] Fill in PBM E-score for record GGCGGGAA
[reply] -0.0569

[ask] Fill in PBM E-score for record CGCTGCCA
[reply] -0.0656

[ask] Fill in PBM E-score for record AGTCATCA
[reply] 0.439

[ask] Fill in PBM E-score for record ACGGCGAA
[reply] 0.0608

[ask] Fill in PBM E-score for record CACTCAAC
[reply] 0.0922

[ask] Fill in PBM E-score for record TACAGTCA
[reply] 0.294

[ask] Fill in PBM E-score for record ATTAGTGG
[reply] 0.141

[ask] Fill in PBM E-score for record CTCAGTCA
[reply] 0.362

[ask] Fill in PBM E-score for record CATCTATA
[reply] 0.0881

[ask] Fill in PBM E-score for record TCATAACA
[reply] 0.272

[ask] Fill in PBM E-score for record CGTGACGA
[reply] 0.00499

[ask] Fill in PBM E-score for record ATTAGTCC
[reply] 0.122

[ask] Fill in PBM E-score for record GACTCAAA
[reply] 0.266

[ask] Fill in PBM E-score for record GGCGGGGA
[reply] 0.409

[ask] Fill in PBM E-score for record CACTATGA
[reply] 0.173

[ask] Fill in PBM E-score for record ATCTGATC
[reply] 0.085

[ask] Fill in PBM E-score for record AAAAGAGG
[reply] -0.134

[ask] Fill in PBM E-score for record TGCTCAAA
[reply] -0.193

[ask] Fill in PBM E-score for record AATAAAGC
[reply] -0.176

[ask] Fill in PBM E-score for record ACAGCTCC
[reply] 0.0267

[ask] Fill in PBM E-score for record CTGACTAA
[reply] 0.359

[ask] Fill in PBM E-score for record CCAGGTTA
[reply] -0.0596

[ask] Fill in PBM E-score for record ATTAGTTA
[reply] 0.143

[ask] Fill in PBM E-score for record AGTGTACG
[reply] 0.163

[ask] Fill in PBM E-score for record CCGGAGTA
[reply] 0.0674

[ask] Fill in PBM E-score for record GTTAGTGA
[reply] 0.0216

[ask] Fill in PBM E-score for record CTCAGTCC
[reply] -0.0479

[ask] Fill in PBM E-score for record ACTTAGAC
[reply] -0.127

[ask] Fill in PBM E-score for record CGTGACAA
[reply] -0.0207

[ask] Fill in PBM E-score for record AAGTGTGT
[reply] 0.0443

[ask] Fill in PBM E-score for record CACCCTCC
[reply] 0.276

[ask] Fill in PBM E-score for record AGGCATCG
[reply] -0.22

[ask] Fill in PBM E-score for record AACAGTCA
[reply] 0.192

[ask] Fill in PBM E-score for record GACACATA
[reply] 0.197

[ask] Fill in PBM E-score for record GAGACACA
[reply] 0.14

[ask] Fill in PBM E-score for record AGTGCACA
[reply] 0.0902

[ask] Fill in PBM E-score for record GCATAACA
[reply] -0.116

[ask] Fill in PBM E-score for record ACTCCCTA
[reply] 0.063

[ask] Fill in PBM E-score for record AACTATGA
[reply] 0.22

[ask] Fill in PBM E-score for record GGACTATA
[reply] 0.0737

[ask] Fill in PBM E-score for record GACTCATA
[reply] 0.388

[ask] Fill in PBM E-score for record AACCTCAA
[reply] -0.195

[ask] Fill in PBM E-score for record CGCGGGCC
[reply] 0.187

[ask] Fill in PBM E-score for record CAGAAGAG
[reply] -0.189

[ask] Fill in PBM E-score for record GTTAGTTA
[reply] 0.137

[ask] Fill in PBM E-score for record GGTGGGAA
[reply] 0.04

[ask] Fill in PBM E-score for record ACCAGTCT
[reply] 0.0104

[ask] Fill in PBM E-score for record AGCAGCGG
[reply] 0.0635

[ask] Fill in PBM E-score for record GCATTCCA
[reply] -0.177

[ask] Fill in PBM E-score for record TAGCGCAA
[reply] -0.0984

[ask] Fill in PBM E-score for record CGCGGGGA
[reply] 0.292

[ask] Fill in PBM E-score for record AACAGGAT
[reply] -0.0425

[ask] Fill in PBM E-score for record CGTGACCC
[reply] 0.141

[ask] Fill in PBM E-score for record GAGGAAGC
[reply] -0.151

[ask] Fill in PBM E-score for record CACCCTCA
[reply] 0.0412

[ask] Fill in PBM E-score for record GTCATCAC
[reply] 0.229

[ask] Fill in PBM E-score for record ACTGCTCA
[reply] 0.0795

[ask] Fill in PBM E-score for record GTCCGGAC
[reply] 0.273

[ask] Fill in PBM E-score for record CTACTTCC
[reply] -0.0528

[ask] Fill in PBM E-score for record AAGACTAG
[reply] -0.209

[ask] Fill in PBM E-score for record TAGAAGGA
[reply] -0.332

[ask] Fill in PBM E-score for record CCGGAGGC
[reply] -0.141

[ask] Fill in PBM E-score for record GTCAGTCA
[reply] 0.267

[ask] Fill in PBM E-score for record GTTAGTCA
[reply] 0.43

[ask] Fill in PBM E-score for record TAGTAGAA
[reply] -0.199

[ask] Fill in PBM E-score for record AGGTGGAG
[reply] -0.191

[ask] Fill in PBM E-score for record AACTCATA
[reply] 0.141

[ask] Fill in PBM E-score for record ATCAGTCG
[reply] 0.23

[ask] Fill in PBM E-score for record CGTGACGC
[reply] -0.144

FYI, the data here is from the supplement of paper PMC3334620.
